Examples of molecules with documented decrease in MCP-1 mRNA follow.
Test system: MCP-1 mRNA
Assay: LPS-induced MCP-1 gene expression in THP-1 macrophages (qRT-PCR)
Assay type: cell-based, human
Conditions: compound 50 µg/mL; 4 h LPS; LPS-treated cells = 100%
Procedure: The human THP-1 monocyte cell line was obtained from ATCC (American Type Culture Collection). […] The THP-1 monocytes were stimulated to differentiate into macrophages with phorbol 12-myristate 13-acetate (PMA) (50 ng/mL) for 24 h. The medium was exchanged for PMA-free medium for 48 h before the cells were used for experiments. The total RNA was isolated from THP-1 cells using TRIzol reagent, according to the manufacturer’s protocol. […]
Quantity name: decrease in MCP-1 mRNA (%)

                                   molecule  assay_system  numeric_readout
0  CC1=C(C(=O)Nc2ccc(Cl)cc2Cl)C(c2ccco2)C2=C(CCCC2=O)N1 (stereo not drawn)    MCP-1 mRNA               37
1  CC1=C(C(=O)Nc2ccccc2C)C(c2cccs2)C2=C(CCCC2=O)N1 (stereo not drawn)    MCP-1 mRNA               53
2  CC1=C(C(=O)Nc2ccccc2C)C(c2ccco2)C2=C(CCCC2=O)N1 (stereo not drawn)    MCP-1 mRNA               67
3  O=C(CSc1nc(=O)c2c(CCCCCl)cc(=O)oc2[nH]1)OCc1ccccc1    MCP-1 mRNA               49
4  CC(Sc1nc(=O)c2c(CCCCCl)cc(=O)oc2[nH]1)C(=O)c1ccc(OCc2ccccc2)cc1 (stereo not drawn)    MCP-1 mRNA               41
5    O=c1[nH]c(=O)c2c(CCCCCl)cc(=O)oc2[nH]1    MCP-1 mRNA               50
